Hello, the source for this data is PubChem BioAssay (NCI), in case you need it.

Assign growth inhibition to each entry below.
procedure-details: NCI Yeast Anticancer Drug Screen. Data for the rad50 strain (AID 155);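 also: 0% = growth of vehicle-only cultures of the same strain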
protocol-conditions: S. cerevisiae rad50 strain growth inhibition; at 50.0 µM; active compounds read high
This is part of a sample that, as a whole, favours compounds with a hit. Of some 79,000 tested, about 15% had one in any assay.
Numbers only here, please. The scale is %.

Input: Please look up its growth inhibition: CSC1(C)C(=O)Nc2cc([N+](=O)[O-])ccc21 (configuration not stated)
Output: 1.7

Input: Please look up its growth inhibition: "Cc1ncc(CO)c(Nc2ccccc2Cl)n1"
Output: 2.5

Input: Please look up its growth inhibition: CC1(C)C2CCC13CS(=O)(=O)N1O[C@]13C(=O)O2 (some centres not stated)
Output: 19.3

Input: Please look up its growth inhibition: CCC1=C/C(=N/O)C(C)=CC1(C)C(Cl)(Cl)Cl (configuration not stated)
Output: 25.7

Input: Please look up its growth inhibition: "CCOC(=O)/C(OC(C)=O)=C1/C=C(C(=O)c2ccccc2)CCC1"
Output: 7.8

Input: Please look up its growth inhibition: "Cc1ccc(N=Nc2ccc(C)cc2NC(=O)c2ccc(Cl)c(Cl)c2)cc1"
Output: -9.6

Input: Please look up its growth inhibition: "O=C(Nc1nccs1)Nc1ccc(Cl)cc1[N+](=O)[O-]"
Output: 0.1

Input: Please look up its growth inhibition: "ON(C(=NCc1ccccc1)c1ccccc1)c1ccccc1"
Output: 2.25

Input: Please look up its growth inhibition: "O=C(Oc1ccc(OC(=O)c2ccc([N+](=O)[O-])cc2)cc1)c1ccccc1"
Output: 9.85

Input: Please look up its growth inhibition: "CCOC(=O)C(=O)Cc1cc(=O)n(C)c2ccccc12"
Output: 12.5

Input: Please look up its growth inhibition: CCCCCCCCCC(O)CCCC(O)C(O)CCCCCCC(=O)O (configuration not stated)
Output: 13.1

Input: Please look up its growth inhibition: "O=c1cc(Nc2ccc(Cl)cc2)[nH]c(=O)[nH]1"
Output: -1.45

Input: Please look up its growth inhibition: "CCCCCC/C(=C\c1ccc(O)cc1)C(=O)O"
Output: 17.6

Input: Please look up its growth inhibition: "O=c1[nH][nH]c(=O)c2c1ncn2Cc1ccccc1"
Output: 34.9

Input: Please look up its growth inhibition: C1CCC2(CCC34CCCCC3CCCC4)CCCCC2C1 (configuration not stated)
Output: 99.5

Input: Please look up its growth inhibition: S=C(Nc1ccccc1)NC1SNC(=Nc2ccccc2)N1c1ccccc1 (configuration not stated)
Output: 98.2

Input: Please look up its growth inhibition: "O=C(/C=C/c1ccc(Cl)cc1)c1ccc(Cl)s1"
Output: -52

Input: Please look up its growth inhibition: "CC(C)OP(=O)(OC(C)C)C([CH2][Sn]([CH3])([CH3])[Cl])P(=O)(OC(C)C)OC(C)C"
Output: 5.75

Input: Please look up its growth inhibition: CC1(c2ccccc2)OCCS1 (configuration not stated)
Output: 40.7

Input: Please look up its growth inhibition: CC(=O)C1CCC2C3CC=C4CC(O)C=CC4(C)C3CCC12C (configuration not stated)
Output: 7.6

Input: Please look up its growth inhibition: "CC[N+](C)(C)CCOP(=O)(c1ccccc1)c1ccccc1"
Output: 2.4

Input: Please look up its growth inhibition: "c1ccc(CCc2ccnc3ccccc23)cc1"
Output: 8.15

Input: Please look up its growth inhibition: CCC1C(OC)=CC(CC)(CO)C=C1OC (configuration not stated)
Output: 4.35

Input: Please look up its growth inhibition: "CN(C)NC(=S)NC12CC3CC(CC(C3)C1)C2"
Output: -15.3

Input: Please look up its growth inhibition: "O/N=C1/CCCCc2ccccc21"
Output: -13.4

Input: Please look up its growth inhibition: "CN1c2ccccc2Sc2cc(/C=C3/SC(=S)NC3=O)ccc21"
Output: 1.95

Input: Please look up its growth inhibition: "CCN(CC)CCOC(=O)Cc1ccccc1"
Output: -8.9

Input: Please look up its growth inhibition: "O=C1OC(c2cccc(Cl)c2)=N/C1=C\c1cccc([N+](=O)[O-])c1"
Output: 15.5

Input: Please look up its growth inhibition: COC(=O)C1CC(=C(C)C)CCC1=O (configuration not stated)
Output: 11.1

Input: Please look up its growth inhibition: O=C1NC=NC1c1ccccc1 (configuration not stated)
Output: -2.25

Input: Please look up its growth inhibition: C[CH2][Sn]([CH2]C)([O]P(=O)(C[Si](C)(C)C)c1ccccc1)[O]P(=O)(C[Si](C)(C)C)c1ccccc1 (configuration not stated)
Output: 0

Input: Please look up its growth inhibition: "Cc1ccc(OC(=O)c2ccc([N+](=O)[O-])cc2)cc1C(C)C"
Output: -15.6

Input: Please look up its growth inhibition: "OCC[N+]12CCCN1CCC2"
Output: -15.4

Input: Please look up its growth inhibition: COc1cc(/C=C/C=C2\CC(C)C/C(=C\C=C\c3ccc(O)c(OC)c3)C2=O)ccc1O (configuration not stated)
Output: 9

Input: Please look up its growth inhibition: CCSCC1C=CC(n2cnc3c(N)ncnc32)O1 (configuration not stated)
Output: -10.3

Input: Please look up its growth inhibition: "CCOC(=O)Cc1[nH]c(C(=O)OCC)c(CC(=O)OCC)c1C(=O)OCC"
Output: 6.3

Input: Please look up its growth inhibition: CC1CCC(C(C)C)=C(C2CCCCC2)C1 (configuration not stated)
Output: -2.15

Input: Please look up its growth inhibition: "NC(=O)NC(=O)OCC(F)(F)C(F)(F)C(F)(F)C(F)(F)C(F)(F)C(F)(F)C(F)(F)F"
Output: 45.8

Input: Please look up its growth inhibition: "CC(=O)Nc1cc(N)ccc1C"
Output: 7.15

Input: Please look up its growth inhibition: Cc1ccc(SCC(OCn2cnc3c(Cl)nc(N)nc32)[C@H](C)F)cc1 (some centres not stated)
Output: 32.2

Input: Please look up its growth inhibition: Cc1ccc(S(=O)(=O)NC2(C=O)CCCC3CCCCC32)cc1 (configuration not stated)
Output: 33

Input: Please look up its growth inhibition: Cc1cccc(C(=O)C(O)c2cccc(C)n2)n1 (configuration not stated)
Output: 7.75

Input: Please look up its growth inhibition: "Nc1cc(C(=O)O)c2ccccc2c1"
Output: 4.5

Input: Please look up its growth inhibition: "FC(F)(F)C(Cl)=C(Cl)Cl"
Output: -1.8

Input: Please look up its growth inhibition: "C=CC(=O)NC(=O)/C=C/c1cccnc1"
Output: 17.4

Input: Please look up its growth inhibition: "c1ccc(-c2nc(-c3ccccc3)n3nc4c(c3c2-c2ccccc2)CCCCCC4)cc1"
Output: -6.65

Input: Please look up its growth inhibition: CC1OC(OC2C(OC3C[C@@]4(C)C(C[C@H](O)[C@H]5[C@H](C6(C)CCC(C(C)(C)O)O6)CCC54C)[C@]4(C)CC[C@@H](O)C(C)(C)C34)OC(CO)C(O)C2O)C(O)C(O)C1O (some centres not stated) (tested in a mixture with another compound)
Output: -7.6
